test: Cytotoxicity against HASMCs assessed as cell viability at 10 uM after 24 hrs by calcein/AM/ethidium homodimer-1 staining based fluorescence microscopic analysis relative to control; settings: human, HASMC cells; read-out: Activity

>  <chemical string>
COc1ccc(S(=O)(=O)N2CCN(c3ccc(C(F)(F)F)cc3)C2=O)cc1

>  <readout units>
%

>  <viability at 24 h, 10 µM>
97

$$$$

* * *

assay: Cytotoxicity against HASMCs assessed as cell viability at 100 uM after 24 hrs by calcein/AM/ethidium homodimer-1 staining based fluorescence microscopic analysis relative to control; conditions: human, HASMC cells; read-out: Activity
viability at 24 h, 100 µM values for the molecules below.

>  <chemical string>
O=C1N(c2ccc(C(F)(F)F)cc2)CCCN1S(=O)(=O)c1ccc(F)cc1

>  <viability at 24 h, 100 µM (%)>
100

$$$$
>  <chemical string>
COc1ccc(S(=O)(=O)N2CCCN(c3ccc(C(F)(F)F)cc3)C2=O)cc1

>  <viability at 24 h, 100 µM (%)>
92

$$$$

* * *

IC50 values for the compounds below.
molecular target: NADPH oxidase 4 (Homo sapiens); test: Inhibition of Nox4 in HASMCs assessed as reduction in TGFbeta-induced increase in smooth muscle alpha actin level pretreated for 30 mins followed by TGFbeta stimulation after 24 hrs by Western blot analysis
Sequence (Q9NPH5 whole entry): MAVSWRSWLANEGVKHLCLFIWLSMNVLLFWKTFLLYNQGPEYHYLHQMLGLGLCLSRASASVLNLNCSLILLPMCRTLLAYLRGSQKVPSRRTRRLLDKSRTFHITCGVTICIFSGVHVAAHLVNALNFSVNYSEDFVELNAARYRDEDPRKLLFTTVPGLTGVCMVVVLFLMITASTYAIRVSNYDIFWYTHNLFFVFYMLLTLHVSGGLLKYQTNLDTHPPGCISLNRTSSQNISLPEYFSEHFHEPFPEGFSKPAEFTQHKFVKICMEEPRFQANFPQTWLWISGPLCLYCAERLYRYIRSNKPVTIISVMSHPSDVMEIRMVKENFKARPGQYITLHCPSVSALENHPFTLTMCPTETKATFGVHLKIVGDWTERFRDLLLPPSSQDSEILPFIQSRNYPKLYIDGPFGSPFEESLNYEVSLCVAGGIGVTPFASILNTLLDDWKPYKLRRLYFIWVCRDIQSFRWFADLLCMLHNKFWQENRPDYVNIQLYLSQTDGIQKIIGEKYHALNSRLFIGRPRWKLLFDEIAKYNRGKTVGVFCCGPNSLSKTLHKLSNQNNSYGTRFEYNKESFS

>  <chemical string>
COc1ccc(S(=O)(=O)N2CCCN(c3ccc(C(F)(F)F)cc3)C2=O)cc1

>  <IC50>
27 µM

$$$$
>  <chemical string>
O=C1N(c2ccc(C(F)(F)F)cc2)CCCN1S(=O)(=O)c1ccc(F)cc1

>  <IC50>
3.7 µM

$$$$
>  <chemical string>
COc1ccc(S(=O)(=O)N2CCN(c3ccc(C(F)(F)F)cc3)C2=O)cc1

>  <IC50>
0.5 µM

$$$$
